assay: Pharmacokinetics in rat; format: in vivo; conditions: in vivo, rats
ATTRIBUTE MEASURED: clearance

Lookup: Any idea what clearance was measured for C[C@]12CCCN1CC1=NNC(=O)c3cc(F)cc4[nH]c2c1c34 [Compound A] ?
Found: 8.67 to 15.2 mL/min/kg

---

Provide the recorded EC50 for the entries that follow.
test system: MDA-MB-231 cells; experiment: Growth inhibition, CellTiter-Glo, 7-day exposure, MDA-MB-231; format: cell-based; details: BRCA wild type, read-out: EC50 for growth inhibition, MDA-MB-231 (Table 20)

Lookup: Under MDA-MB-231 cells: EC50 value of O=C(c1cc(Cc2n[nH]c(=O)c3ccccc23)ccc1F)N1CCN(C(=O)C2CC2)CC1 [Olaparib, olaparib, reference compound] ?
Found: ~5 µM

Lookup: Follow-up item: C[C@]1(c2nc3c(C(N)=O)cccc3[nH]2)CCCN1 [Veliparib, veliparib, reference compound]
Found: > 10 µM
